Provenance of the data: patent US20260216326A1

- TARGET OF ASSAY: T1, human TL1A (Fitzgerald #30R-AT070) (human, UniProt O95150 72-251, limits assumed)
- T1 construct: Coated on the ELISA plate at 1 ug/mL; also called TNFSF15
- T1 sequence (looked up): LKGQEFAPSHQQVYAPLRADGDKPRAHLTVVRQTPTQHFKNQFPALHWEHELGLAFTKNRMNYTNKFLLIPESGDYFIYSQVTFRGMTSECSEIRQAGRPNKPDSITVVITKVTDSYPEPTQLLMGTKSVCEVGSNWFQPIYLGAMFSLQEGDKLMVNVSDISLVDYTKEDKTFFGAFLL
- PROTOCOL DESCRIPTION: ELISA titration, coated human TL1A, culture supernatant
Below, each entry is listed alongside its reported Kd.
// return numeric value only (unit: nM, not printed)

A selection of reference data follows.
BINDER	READOUT VALUE
A118 (antibody, human IgG1, V domains shown, human IgG1/kappa (pFuse vectors), culture supernatant) VH: QVQLVQSGAEVKKPGASVKVSCKASGFDIQDTYMHWVRQAPGQGLEWIGRIDPASGHIKYDPKFQGRVTMTRDTSTSTVYMELSSLRSEDTAVYYCARSGGLPDWWGQGTTVTVSS VL: EIVLTQSPGTLSLSPGERATLSCRASSSVSYMYWYQQKPGQAPRPWIYATSNLASGIPDRFSGSGSGTDFTLTISRLEPEDFAVYYCQQWEGNPRTFGGGTKLEIK	0.083
A139 (antibody, human IgG1, V domains shown, human IgG1/kappa (pFuse vectors), culture supernatant) VH: QVQLVQSGAEVKKPGASVKVSCKASGFDIQDTYMHWVRQRPGQGLEWMGRIDPASGHTKYDPKFQVRVTITTDTSTSTAYLELSSLRSEDTAVYYCARSGGLPDVWGQGTTVTVSS VL: EIVLTQSPGTLSLSPGERATLSCRASSSVSYMYWYQQKPGQAPRLLIYATSNLASGIPDRFSGSGSGTDFTLTISRLEPEDFAVYYCQQWSRNPRTFGGGTKLEIK	0.074
A64 (antibody, human IgG1, V domains shown, human IgG1/kappa (pFuse vectors), culture supernatant) VH: QVQLVQSGAEVKKPGASVKVSCKASGFDIQDTYMHWVRQAPGQGLEWMGRIEPASGHIKYDPKFQVRVTMTRDTSTSTVYMELSSLRSEDTAVYYCARSGGLPDWWGQGTTVTVSS VL: EIVLTQSPGTLSLSPGERATLSCRASSSVSYMYWYQQKPGQAPRLLIYATSNLASGIPDRFSGSGSGTDFTLTISRLEPEDFAVYYCQQWEGNPRTFGGGTKLEIK	0.09
A119 (antibody, human IgG1, V domains shown, human IgG1/kappa (pFuse vectors), culture supernatant) VH: QVQLVQSGAEVKKPGASVKVSCKASGFDIQDTYMHWVRQAPGQGLEWMGRIEPASGHTKYDPKFQGRVTMTRDTSTSTVYMELSSLRSEDTAVYYCARSGGLPDWWGQGTTVTVSS VL: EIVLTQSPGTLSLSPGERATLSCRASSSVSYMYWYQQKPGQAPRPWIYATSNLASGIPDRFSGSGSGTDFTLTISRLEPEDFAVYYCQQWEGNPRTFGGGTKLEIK	0.087

[in] What Kd value was documented for this binder, A124 (antibody, human IgG1, V domains shown, human IgG1/kappa (pFuse vectors), culture supernatant) VH: QVQLVQSGAEVKKPGASVKVSCKASGFDIQDTYMHWVRQRPGQGLEWIGRIDPASGHTKYDPKFQVRVTITTDTSTSTAYLELSSLRSEDTAVYYCARSGGLPDVWGQGTTVTVSS VL: EIVLTQSPGTLSLSPGERATLSCRASSSVSYMYWYQQKPGQAPRLLIYATSNLASGIPDRFSGSGSGTDFTLTISRLEPEDFAVYYCQQWKGNPRTFGGGTKLEIK ?
[out] 0.091

[in] What Kd value was documented for this binder, A126 (antibody, human IgG1, V domains shown, human IgG1/kappa (pFuse vectors), culture supernatant) VH: QVQLVQSGAEVKKPGASVKVSCKASGFDIQDTYMHWVKQRPGQGLEWMGRIDPASGHTKYDPKFQVRVTITRDTSTSTAYLELSSLRSEDTAVYYCARSGGLPDVWGQGTTVTVSS VL: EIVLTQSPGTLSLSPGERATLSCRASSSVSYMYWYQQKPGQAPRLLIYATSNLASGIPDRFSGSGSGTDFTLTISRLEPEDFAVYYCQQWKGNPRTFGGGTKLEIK ?
[out] 0.123

[in] What Kd value was documented for this binder, A70 (antibody, human IgG1, V domains shown, human IgG1/kappa (pFuse vectors), culture supernatant) VH: QVQLVQSGAEVKKPGASVKVSCKASGFDIQDTYMHWVRQAPGQGLEWMGRIEPASGHIKYDPKFQGRVTMTTDTSTSTVYMELSSLRSEDTAVYYCARSGGLPDWWGQGTTVTVSS VL: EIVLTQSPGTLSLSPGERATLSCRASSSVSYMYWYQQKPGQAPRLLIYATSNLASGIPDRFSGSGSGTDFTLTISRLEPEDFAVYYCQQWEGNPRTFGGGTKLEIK ?
[out] 0.149

[in] What Kd value was documented for this binder, A90 (antibody, human IgG1, V domains shown, human IgG1/kappa (pFuse vectors), culture supernatant) VH: QVQLVQSGAEVKKPGASVKVSCKASGFDIQDTYMHWVRQAPGQGLEWMGRIEPASGHIKYDPKFQGRVTMTRDTSTSTVYMELSSLRSEDTAVYYCARSGGLPDWWGQGTTVTVSS VL: EIVLTQSPGTMSLSPGERATLSCRASSSVSYMYWYQQKPGQAPRLLIYATSNLASGIPDRFSGSGSGTDFTLTISRLEPEDFAVYYCQQWEGNPRTFGGGTKLEIK ?
[out] 0.107

[in] What Kd value was documented for this binder, A45 (antibody, human IgG1, V domains shown, human IgG1/kappa (pFuse vectors), culture supernatant) VH: QVQLVQSGAEVKKPGASVKVSCKASGFDIQDTYMHWVKQRPGQGLEWIGRIDPASGHTKYDPKFQVRVTITRDTSTSTAYLELSSLRSEDTAVYYCARSGGLPDVWGQGTTVTVSS VL: EIVLTQSPGTLSASPGERATMSCRASSSVSYMYWYQQKPGQAPRPWIYATSNLASGVPDRFSGSGSGTDYTLTISRVEPEDFAVYYCQQWSGNPRTFGGGTKLEIK ?
[out] 0.085

[in] What Kd value was documented for this binder, A134 (antibody, human IgG1, V domains shown, human IgG1/kappa (pFuse vectors), culture supernatant) VH: QVQLVQSGAEVKKPGASVKVSCKASGFDIQDTYMHWVRQAPGQGLEWMGRIEPASGHIKYDPKFQVRATMTRDTSTSTVYMELSSLRSEDTAVYYCARSGGLPDWWGQGTTVTVSS VL: EIVLTQSPGTLSLSPGERATLSCRASSSVSYMYWYQQKPGQAPRPLIYATSNLASGIPDRFSGSGSGTDFTLTISRLEPEDFAVYYCQQWKGNPRTFGGGTKLEIK ?
[out] 0.055
